target: ESPNL; assay: pooled miR-30 sensor sort-seq; sequence = guide strand; details: shRNA; note: reference of the scale not given here
Provide the recorded sensor-assay potency score (higher = more potent) for the entries that follow.
Write no unit; give the number alone.

sensor-assay potency score (higher = more potent) measured on TTCAGCAGCAGGGACAGGCTGC = -0.751

sensor-assay potency score (higher = more potent) measured on TGCCACAACAGAACAGTCCCGC = 0.291

sensor-assay potency score (higher = more potent) measured on TACATCTTCTTGAGTGTCCGTC = 0.148

sensor-assay potency score (higher = more potent) measured on TTATTTAGCAAACACATGTTCA = -0.54

sensor-assay potency score (higher = more potent) measured on TGAGTCTGTGAGTACCTCCAGG = -0.966

sensor-assay potency score (higher = more potent) measured on TCGGTGAATGTGACCAGCCAGA = -1.22

sensor-assay potency score (higher = more potent) measured on TAGCAAACACATGTTCAGCTTC = 0.322

sensor-assay potency score (higher = more potent) measured on TTTATTTAGCAAACACATGTTC = -0.167

sensor-assay potency score (higher = more potent) measured on TCCTCTTCTTCCATCCTCCAGG = -1.74

sensor-assay potency score (higher = more potent) measured on TTTTACATCTTCTTGAGTGTCC = 0.799

sensor-assay potency score (higher = more potent) measured on TGCACCAAGAACTTGACGCAGT = -1.02

* * *

Provide the recorded sensor-assay potency score (higher = more potent) for the entries that follow.
target: AP4S1; experiment: pooled miR-30 sensor sort-seq; sequence = guide strand; settings: shRNA
Write no unit; give the number alone.

GET /values?item= TTATATTCAATGAAAGAGCATT &system= AP4S1 returns sensor-assay potency score (higher = more potent): -1.02

GET /values?item= TTCATAAATAGCCATCTCGTTC &system= AP4S1 returns sensor-assay potency score (higher = more potent): -1.14

GET /values?item= TAAATCAAGAAAACATTCCGGA &system= AP4S1 returns sensor-assay potency score (higher = more potent): 0.763

GET /values?item= TTAGAAAGTCGAGTCTGCCCTT &system= AP4S1 returns sensor-assay potency score (higher = more potent): 0.201

GET /values?item= ATTAACTCCAACCACAATGAAG &system= AP4S1 returns sensor-assay potency score (higher = more potent): -1.9

GET /values?item= TATATCAGCTTAAAATCCTTAT &system= AP4S1 returns sensor-assay potency score (higher = more potent): -0.456

GET /values?item= TTGAATGATGAACTGTCTGGAG &system= AP4S1 returns sensor-assay potency score (higher = more potent): 0.198

* * *

molecular target: USP44; assay: pooled miR-30 sensor sort-seq; sequence = guide strand; settings: shRNA
recorded_endpoint: sensor-assay potency score (higher = more potent)

sensor-assay potency score (higher = more potent) measured on TATCATTCAGAACATAATCATC = -1.41

sensor-assay potency score (higher = more potent) measured on TAACTTGATACTCCAATTCCTG = -1.33

sensor-assay potency score (higher = more potent) measured on TTGCACAAGTTCATCATCCGAG = 0.487

sensor-assay potency score (higher = more potent) measured on TTGCAGTCCACACAGTGCCATT = -1.55

sensor-assay potency score (higher = more potent) measured on TTGCAGTGTACCCAGAACCCTC = -1.01

sensor-assay potency score (higher = more potent) measured on TATAAAACAAGATATAAGCTTG = -0.0233
